# target-system: UniProt P03951
# method: Inhibition of full-length human factor-11a-mediated S-2366 hydrolysis preincubated for 10 mins followed by substrate addition by spectrophotometric analysis relative to control
observable: Efficacy (%)

>>> recorded_number("CCOC(=O)c1c(C)oc2cc(OC)c(OCc3oc4cc(OC)c(OCc5oc6cc(OCC)c(OS(=O)(=O)O)cc6c5C(=O)OCC)cc4c3C(=O)OCC)cc12")
100
>>> recorded_number("C=CCOC(=O)c1c(C)oc2cc(OC)c(OCc3oc4cc(OC)c(OCc5oc6cc(OC)c(OS(=O)(=O)O)cc6c5C(=O)OCC)cc4c3C(=O)OCC)cc12")
100
>>> recorded_number("O=C(Nc1ccc(OS(=O)(=O)O)cc1)c1cccc(N2C(=O)c3ccc(C(=O)Nc4ccc(OS(=O)(=O)O)cc4)cc3C2=O)c1")
100
>>> recorded_number("COC(=O)c1c(C)oc2cc(OC)c(OCc3oc4cc(OC)c(OS(=O)(=O)O)cc4c3C(=O)OC)cc12")
100
>>> recorded_number("CCOC(=O)c1c(COc2cc3c(C(=O)OCC)c(COc4cc5c(C(=O)O)c(C)oc5cc4OC)oc3cc2OC)oc2cc(OC)c(O)cc12")
100
>>> recorded_number("CCOC(=O)c1c(C)oc2cc(OC)c(OCc3oc4cc(OC)c(OCc5oc6cc(OC(C)C)c(OS(=O)(=O)O)cc6c5C(=O)OCC)cc4c3C(=O)OCC)cc12")
100
>>> recorded_number("CCOC(=O)c1c(COc2cc3c(C(=O)O)c(C)oc3cc2OC)oc2cc(OC)c(OCc3oc4cc(OC)c(OS(=O)(=O)O)cc4c3C(=O)OCC)cc12")
100
>>> recorded_number("CCOC(=O)c1c(C)oc2cc(OC)c(OCc3oc4cc(OC)c(OCc5oc6cc(OC)c(OS(=O)(=O)O)cc6c5C(=O)OCC)cc4c3C(=O)OCC)cc12")
100
>>> recorded_number("CCOC(=O)c1c(C)oc2cc(OC)c(OCc3oc4cc(OC)c(OCc5oc6cc(OC)c(OS(=O)(=O)O)cc6c5C(=O)OC)cc4c3C(=O)OCC)cc12")
100
>>> recorded_number("N#Cc1c(SCC(=O)c2cccc(OS(=O)(=O)O)c2OS(=O)(=O)O)nc([N+](=O)[O-])c(C#N)c1-c1ccc(Oc2ccccc2)cc1")
100
>>> recorded_number("CCOC(=O)c1c(C)oc2cc(OC)c(OCc3oc4cc(OCC)c(OS(=O)(=O)O)cc4c3C(=O)OCC)cc12")
100
>>> recorded_number("CCOC(=O)c1c(C)oc2cc(OC)c(OCc3oc4cc(OC)c(OCc5oc6cc(OC)c(OCc7oc8cc(OC)c(OS(=O)(=O)O)cc8c7C(=O)OCC)cc6c5C(=O)OCC)cc4c3C(=O)OCC)cc12")
100

* * *

# target-system: Coagulation factor XI (Homo sapiens, UniProt P03951)
# Sequence (P03951 19-387 limits assumed): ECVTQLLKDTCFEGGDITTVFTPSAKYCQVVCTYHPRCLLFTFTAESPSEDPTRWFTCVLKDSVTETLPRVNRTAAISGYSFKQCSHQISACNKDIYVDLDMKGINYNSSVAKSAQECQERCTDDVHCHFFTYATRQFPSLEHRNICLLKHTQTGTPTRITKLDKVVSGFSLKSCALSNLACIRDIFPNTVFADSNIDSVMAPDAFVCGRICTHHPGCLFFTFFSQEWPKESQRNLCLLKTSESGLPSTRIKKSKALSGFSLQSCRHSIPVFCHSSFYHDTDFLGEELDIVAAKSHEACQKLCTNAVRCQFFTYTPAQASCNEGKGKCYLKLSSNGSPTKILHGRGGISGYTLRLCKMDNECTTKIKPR
# Sequence (P03951 388-625 limits assumed): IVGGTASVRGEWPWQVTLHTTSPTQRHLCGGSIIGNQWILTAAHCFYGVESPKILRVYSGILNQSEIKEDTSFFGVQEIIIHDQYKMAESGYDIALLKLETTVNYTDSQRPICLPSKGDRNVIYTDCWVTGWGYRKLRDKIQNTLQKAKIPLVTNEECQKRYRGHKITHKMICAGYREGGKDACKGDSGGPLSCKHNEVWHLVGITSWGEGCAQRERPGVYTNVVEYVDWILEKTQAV
# method: Inhibition of full-length human factor-11a-mediated S-2366 hydrolysis assessed as reduction in residual activity at 300 uM preincubated for 10 mins followed by substrate addition by spectrophotometric analysis relative to control
observable: Activity

>>> result("CCOC(=O)c1c(C)oc2cc(OC)c(OCc3oc4cc(OC)c(OCc5oc6cc(OCC)c(OS(=O)(=O)O)cc6c5C(=O)OCC)cc4c3C(=O)OCC)cc12")
"> 50%"
>>> result("CCOC(=O)c1c(COc2cc3c(C(=O)O)c(C)oc3cc2OC)oc2cc(OC)c(OCc3oc4cc(OC)c(OS(=O)(=O)O)cc4c3C(=O)OCC)cc12")
"> 50%"
>>> result("N#Cc1c(SCC(=O)c2cccc(OS(=O)(=O)O)c2OS(=O)(=O)O)nc([N+](=O)[O-])c(C#N)c1-c1ccc(Oc2ccccc2)cc1")
"> 50%"

Data provenance: ChEMBL document CHEMBL3259627
